endpoint_label: melting point

Qu. Please report the measured melting point for `Nc1nc2ccccc2n1-c1ccc(F)cc1`
Ans. 164 to 166 °C

Qu. Please report the measured melting point for `NS(=O)(=O)c1ccc(NC(=O)CCl)cc1`
Ans. 156 to 158 °C

Qu. Please report the measured melting point for `COC(=O)c1cc(S(=O)(=O)Cl)ccc1C`
Ans. 44 to 46 °C

Qu. Please report the measured melting point for `O=S1(=O)CCC(I)CC1`
Ans. 124 to 126 °C

Qu. Please report the measured melting point for `O=C(O)c1cccc(S(=O)(=O)N2CCOCC2)c1`
Ans. 198 to 200 °C

Qu. Please report the measured melting point for `c1ccc(CCc2nnn[nH]2)cc1`
Ans. 96 to 98 °C

Qu. Please report the measured melting point for `COC(=O)c1cc(OC)c(OC(F)F)cc1[N+](=O)[O-]`
Ans. 96 to 98 °C

Hello, the source for this data is a melting point compilation (Tetko et al.), in case you need it.
